- Assayed system: JAK2 (Homo sapiens)
- Construct: purchased Carna Biosciences
- Sequence (O60674 whole entry): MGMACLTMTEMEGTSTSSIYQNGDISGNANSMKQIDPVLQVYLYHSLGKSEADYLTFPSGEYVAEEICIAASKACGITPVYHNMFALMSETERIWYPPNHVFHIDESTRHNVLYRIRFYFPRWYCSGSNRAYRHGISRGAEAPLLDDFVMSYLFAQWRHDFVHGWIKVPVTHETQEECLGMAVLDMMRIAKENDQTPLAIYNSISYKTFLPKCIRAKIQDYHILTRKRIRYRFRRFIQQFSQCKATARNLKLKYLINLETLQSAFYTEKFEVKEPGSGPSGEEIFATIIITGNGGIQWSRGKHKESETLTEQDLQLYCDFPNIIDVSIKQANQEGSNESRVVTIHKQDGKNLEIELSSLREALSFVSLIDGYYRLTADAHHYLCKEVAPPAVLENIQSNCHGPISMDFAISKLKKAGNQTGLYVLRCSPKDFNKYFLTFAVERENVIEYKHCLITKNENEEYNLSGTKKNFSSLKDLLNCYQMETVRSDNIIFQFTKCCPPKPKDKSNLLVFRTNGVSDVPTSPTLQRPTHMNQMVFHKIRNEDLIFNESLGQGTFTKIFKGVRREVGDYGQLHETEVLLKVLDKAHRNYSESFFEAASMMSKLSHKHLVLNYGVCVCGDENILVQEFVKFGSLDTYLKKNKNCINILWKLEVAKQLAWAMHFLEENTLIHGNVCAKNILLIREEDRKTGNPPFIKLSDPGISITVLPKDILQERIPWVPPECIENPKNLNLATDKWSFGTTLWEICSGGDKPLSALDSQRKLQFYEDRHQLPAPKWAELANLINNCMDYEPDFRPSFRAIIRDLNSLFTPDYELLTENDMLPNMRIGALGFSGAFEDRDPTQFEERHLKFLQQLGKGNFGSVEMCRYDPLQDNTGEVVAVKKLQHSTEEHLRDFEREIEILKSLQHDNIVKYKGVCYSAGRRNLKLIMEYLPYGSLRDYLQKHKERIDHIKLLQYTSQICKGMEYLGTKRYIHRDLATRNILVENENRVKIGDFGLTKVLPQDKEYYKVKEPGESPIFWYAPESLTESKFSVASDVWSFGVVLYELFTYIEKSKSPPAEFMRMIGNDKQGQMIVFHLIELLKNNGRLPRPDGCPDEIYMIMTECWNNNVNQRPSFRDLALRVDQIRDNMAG
- Protocol summary: JAK2 microfluidic kinase assay (Caliper EZ Reader II, FAM labeled peptide substrate)
- Format: biochemical
- Measurement conditions: (0.25 nM), 1 mM ATP; Table 3B, literature compounds; read-out: JAK2 (0.25 nM) (1 mM ATP)
Assay endpoint: IC50
The number alone won't do; follow it with the unit.

Consider the worked cases shown below.
Given item CCOc1ccc(-c2nc(Nc3cnn(C(C)C)c3)ncc2C)cc1F [Example 49, reference compound] , the value recorded as its IC50 is 80.7 nM

Given item CCCOc1ccc(-c2nc(Nc3cnn(C)c3)ncc2C)cc1F [Example 48, reference compound] , the value recorded as its IC50 is 39.6 nM

Given item Cc1cnc(Nc2cnn(C)c2)nc1-c1ccc(OC(C)C)c(F)c1 [Example 47, reference compound] , the value recorded as its IC50 is 61.3 nM

Given item COc1ccc(-c2nc(Nc3cnn(C)c3)ncc2C)cc1F [Example 45, reference compound] , the value recorded as its IC50 is 121 nM

Given item CCOc1ccc(-c2nc(Nc3cnn(C)c3)ncc2C)cc1F [Example 46, reference compound] , the value recorded as its IC50 is 60.6 nM

Let us examine a further case.
Given item CCOc1ccc(-c2nc(Nc3cnn(C)c3)ncc2C)cc1 [Example 50, reference compound] , the value recorded as its IC50 is 201 nM

From: patent US12024503B2
